- Tested on: MDA-MB-435
- procedure summary: NCI tumour cell line growth inhibition, 48 h
Active and inactive are the calls of the source. Rule as the data show it: active = GI50 up to about 1.1 µM and inactive = higher.
# GI50 per record follows

> print(dat)
                                  molecule      value.reported
1  CCN(CC)C(=S)SS(=O)(=O)c1ccc(NC(C)=O)cc1  17.1 µM (inactive)

Return GI50 for the following molecule: N#Cc1ccc(OC(=O)c2ccc(NC(=N)N)cc2)cc1.c1ccncc1
67.8 µM (inactive)

Return GI50 for the following molecule: O=C(O)c1ccc(C2=Nc3cccc4cccc(c34)N2)cc1
> 100 µM (inactive)

====

- Tested on: MOLT-4
- procedure summary: NCI tumour cell line growth inhibition, 48 h
Calls of active or inactive are those of the source. Rule as the data show it: active = GI50 up to about 1.1 µM and inactive = higher.
Answer with one of the outcomes given here: True (active), False (inactive)

Examples from the recorded data:
> print(dat)
                                  compound  discrete.label
1  Cc1cc(C#N)c(Nc2c(C)cccc2[N+](=O)[O-])s1           False
2        Cc1ccc(F)cc1NC(=O)O/N=C(\Cl)C(C)C           False

# outcome recorded in this test, key = Clc1ccc(-c2nc(-c3ccc(Cl)cc3)[s+]s2)cc1
False

# outcome recorded in this test, key = COc1ccccc1CNCCCCCNCCCCCCCCCCNCCCCCNCc1ccccc1OC
False

# outcome recorded in this test, key = CCCC/C=C1\CCC(CN2CCOCC2)C1=O (stereo unspecified)
False

# outcome recorded in this test, key = COc1cc2c(cc1OC)C(=O)/C(=C/c1cc(C)c(O)c(C)c1)C2
True

# outcome recorded in this test, key = COC(=O)C1(C(=O)OC)C/C(C)=C(/C)SCCCS1
False

# outcome recorded in this test, key = CCCCCCCC(=O)OCC(COC(=O)C(C)(C)C)OC(=O)Cc1ccccc1 (stereo unspecified)
False

# outcome recorded in this test, key = O=c1c2ccccc2nc(-c2ccccc2)n1/N=C/c1ccccc1[N+](=O)[O-]
False

# outcome recorded in this test, key = Cn1c(=O)c2c(nc3sc4c(n32)C(=O)c2c(O)ccc(O)c2C4=O)n(C)c1=O
False

# outcome recorded in this test, key = COc1ccc(-c2cc(C(=O)Nc3cccc(C(F)(F)F)c3)nc(S)n2)cc1
False

====

# GI50 per record follows
- Tested on: SF-268
- procedure summary: NCI tumour cell line growth inhibition, 48 h
Active and inactive are the calls of the source. No stated cut-off is given here; in the data, active = GI50 up to about 1.1 µM and inactive = higher.

# example entries with known answers
> print(dat)
                                   molecule       value.reported
1  COc1ccc2nc(C)cc(NCCCCCCCCCNc3cc(C)nc4ccc(OC)cc34)c2c1   1.93 µM (inactive)
2  COc1ccc(-[n+]2nc(S(=O)(=O)O)c(/C=C/c3ccc(N(C)C)cc3)cc2C#N)cc1  > 100 µM (inactive)

Print SF-268 GI50 for C#C[C@]1(O)CC[C@H]2[C@@H]3CCC4=C/C(=N\OCCN(CC)CC)CC[C@]4(C)[C@H]3CC[C@@]21C .
2.92 µM (inactive)

Print SF-268 GI50 for CC(C)(C)/N=C1\C(=O)C2(C)CCC1C2(C)C (centres undefined) .
> 100 µM (inactive)

Print SF-268 GI50 for C=C1c2ccccc2N(S(=O)(=O)c2ccc(C)cc2)C12CCCCC2 .
63 µM (inactive)

Print SF-268 GI50 for CN(C)CCNC1=Nc2ccccc2C(=S)N2CSCC12 (centres undefined) .
> 100 µM (inactive)

Print SF-268 GI50 for Cc1c(/C=N\NC(=S)NCCNC(=S)N/N=C\c2c(C)n(C)n(-c3ccccc3)c2=O)c(=O)n(-c2ccccc2)n1C .
> 100 µM (inactive)

Print SF-268 GI50 for C[n+]1c(-c2ccc(/C=C/C=N\NC(=O)c3ccc(C(=O)N/N=C\C=C\c4ccc(-c5cn6ccccc6[n+]5C)cc4)cc3)cc2)cn2ccccc21 .
> 100 µM (inactive)

Print SF-268 GI50 for CCCCCCCC(=O)OCC(COC(=O)C(C)(C)C)OC(=O)Cc1ccccc1 (centres undefined) .
> 100 µM (inactive)
